Recorded % max activation for the following binders
target: human MC3R (human, UniProt P41968 1-323); assay: cell-based or functional assay
Sequence (P41968 whole entry): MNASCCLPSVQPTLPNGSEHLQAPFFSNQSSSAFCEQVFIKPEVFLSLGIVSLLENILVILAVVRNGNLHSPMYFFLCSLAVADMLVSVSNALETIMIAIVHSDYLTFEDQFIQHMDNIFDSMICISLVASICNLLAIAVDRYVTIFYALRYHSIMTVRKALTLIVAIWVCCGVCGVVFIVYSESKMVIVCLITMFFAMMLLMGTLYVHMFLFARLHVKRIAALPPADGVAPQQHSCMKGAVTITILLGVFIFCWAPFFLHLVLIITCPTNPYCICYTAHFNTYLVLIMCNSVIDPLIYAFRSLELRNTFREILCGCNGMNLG
Starred links: 1 amine or outer side, 2 acyl side, 3 side chain; linkers in the order of their positions; H or OH if unused. Positions of bridges follow the written chain, without caps; N, C: chain ends. Non-standard residues stand in square brackets, D forms with d. dTyr(4-OMe) = O-methyl-D-tyrosine (4-OMe), COc1ccc(C[C@@H](N[*:1])C(=O)[*:2])cc1; NMeW = CN[C@@H](Cc1c[nH]c2ccccc12)C(=O)O; 2Nal = N[C@@H](Cc1ccc2ccccc2c1)C(=O)O; NMeH = CN[C@@H](Cc1c[nH]cn1)C(=O)O; Cit = NC(=O)NCCC[C@H](N)C(=O)O; Nle = CCCC[C@H](N)C(=O)O; Aib = CC(C)(N)C(=O)O
Readout label: % max activation (%)

- Ac-RCA[Cit][dF]R[dW]C-NH2 (disulfide 2-8) [CTX-1288]: 36
- Ac-C[Aib]H[dF]RFC-NH2 (disulfide 1-7; SMILES CC(=O)N[C@H]1CSSC[C@@H](C(N)=O)NC(=O)[C@H](Cc2ccccc2)NC(=O)[C@H](CCCNC(=N)N)NC(=O)[C@@H](Cc2ccccc2)NC(=O)[C@H](Cc2c[nH]cn2)NC(=O)C(C)(C)NC1=O) [CTX-1634]: 94
- Ac-R[Nle]CR[dTyr(4-OMe)]RFC-NH2 (disulfide 3-8; SMILES CCCC[C@H](NC(=O)[C@H](CCCNC(=N)N)NC(C)=O)C(=O)N[C@H]1CSSC[C@@H](C(N)=O)NC(=O)[C@H](Cc2ccccc2)NC(=O)[C@H](CCCNC(=N)N)NC(=O)[C@@H](Cc2ccc(OC)cc2)NC(=O)[C@H](CCCNC(=N)N)NC1=O) [CTX-1624]: 66
- {CH2CO}-GR[dF]RFC-NH2 (thioether N-6; SMILES N=C(N)NCCC[C@@H]1NC(=O)CNC(=O)CSC[C@@H](C(N)=O)NC(=O)[C@H](Cc2ccccc2)NC(=O)[C@H](CCCNC(=N)N)NC(=O)[C@@H](Cc2ccccc2)NC1=O) [CTX-1654]: 43
- Ac-[Nle]CH[2Nal]R[dW]CRFG-NH2 (disulfide 2-7; SMILES CCCC[C@H](NC(C)=O)C(=O)N[C@H]1CSSC[C@@H](C(=O)N[C@@H](CCCNC(=N)N)C(=O)N[C@@H](Cc2ccccc2)C(=O)NCC(N)=O)NC(=O)[C@@H](Cc2c[nH]c3ccccc23)NC(=O)[C@H](CCCNC(=N)N)NC(=O)[C@H](Cc2ccc3ccccc3c2)NC(=O)[C@H](Cc2c[nH]cn2)NC1=O) [CTX-2128]: 99
- {CH2CO}-[dA][NMeH][dF]R[NMeW]C-NH2 (thioether N-6; SMILES C[C@H]1NC(=O)CSC[C@@H](C(N)=O)NC(=O)[C@H](Cc2c[nH]c3ccccc23)N(C)C(=O)[C@H](CCCNC(=N)N)NC(=O)[C@@H](Cc2ccccc2)NC(=O)[C@H](Cc2c[nH]cn2)N(C)C1=O) [CTX-1203]: 107
